Listed below are molecules with pIC50 for Aurora kinase B (Homo sapiens), each taken from published literature.
In textbook form, pIC50 equals minus log to base ten of the concentration in mol/L.

Field: example entries. Status: answers known.
[[record]]
smiles_code = "CCN(CC)CCCOc1ccc2c(Nc3ccc(C)c(Nc4ncc(-c5cccnc5)cn4)c3)ncnc2c1"
number = 6.69

[[record]]
smiles_code = "Cc1ccc(Nc2ncnc3cc(OCCCN4CCCCC4)ccc23)cc1Nc1ncc(-c2cccnc2)cn1"
number = 6.31

[[record]]
smiles_code = "CCN1CCN(C(=O)c2ccc(Nc3ncc4c(n3)N(C)c3ccccc3C(=O)N4C)cc2)CC1"
number = 7.82

[[record]]
smiles_code = "O=c1c(O[C@@H]2O[C@H](CO)[C@@H](O)[C@H](O)[C@H]2O)c(-c2ccc(O)c(O)c2)oc2cc(O)cc(O)c12"
number = 4.97

[[record]]
smiles_code = "COc1cc(-c2cc(=O)c3c(O)c(OC)c(OC)c(OC)c3o2)cc(OC)c1OC"
number = 4.37

[[record]]
smiles_code = "CN1C(=O)c2ccccc2N(C)c2nc(Nc3ccc(C(=O)N4CCC(O)CC4)c(C(F)(F)F)c3)ncc21"
number = 7.36


Query (molecule): O=c1cc(-c2ccc(O)cc2)oc2cc(O[C@@H]3O[C@H](CO)[C@@H](O)[C@H](O)[C@H]3O[C@@H]3OC[C@](O)(CO)[C@H]3O)cc(O)c12 ; field requested: pIC50 4.92
